Relative activity (%): recorded values
Target: T1, hCD112R mFC recombinant protein (human; murine, UniProt Q6DKI7 41-160)
T1 construct: range 41-160; expressed in 293E cells; also called hCD112R ECD mFC; hCD112R-ECD-mFC; not shown: murine IgG2a Fc domain (MX2-mFc vector)
T1 sequence (looked up): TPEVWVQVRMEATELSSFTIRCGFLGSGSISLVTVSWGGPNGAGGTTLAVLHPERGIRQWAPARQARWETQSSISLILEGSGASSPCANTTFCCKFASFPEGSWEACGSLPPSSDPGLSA
Assay: FACS competition, hCD112R mFc on CHO CD112 cells; IC50 COM701/IC50 antibody
Output spec: scalar in %, unitless text.

See these solved cases before continuing.
Hu21 (antibody, IgG4, V domains shown, humanized IgG4) VH: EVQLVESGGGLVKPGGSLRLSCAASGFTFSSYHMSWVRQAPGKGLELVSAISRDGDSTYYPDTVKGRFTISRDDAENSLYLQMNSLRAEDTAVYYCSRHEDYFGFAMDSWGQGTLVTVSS VL: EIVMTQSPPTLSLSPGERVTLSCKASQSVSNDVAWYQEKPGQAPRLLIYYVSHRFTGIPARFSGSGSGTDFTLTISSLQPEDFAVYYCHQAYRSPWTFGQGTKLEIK : 146
Hu11 (antibody, IgG4, V domains shown, humanized IgG4) VH: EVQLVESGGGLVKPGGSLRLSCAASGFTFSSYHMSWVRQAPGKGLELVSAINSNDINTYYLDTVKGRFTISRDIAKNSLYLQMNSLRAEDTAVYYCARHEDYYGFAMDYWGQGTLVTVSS VL: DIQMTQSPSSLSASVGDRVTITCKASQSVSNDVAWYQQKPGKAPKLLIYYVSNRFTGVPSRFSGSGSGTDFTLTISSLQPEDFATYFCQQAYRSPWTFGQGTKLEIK : 91.6
Hu10 (antibody, IgG4, V domains shown, humanized IgG4) VH: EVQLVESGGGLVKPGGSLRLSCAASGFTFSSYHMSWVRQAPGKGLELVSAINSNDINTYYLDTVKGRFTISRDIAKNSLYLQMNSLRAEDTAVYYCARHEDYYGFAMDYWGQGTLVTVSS VL: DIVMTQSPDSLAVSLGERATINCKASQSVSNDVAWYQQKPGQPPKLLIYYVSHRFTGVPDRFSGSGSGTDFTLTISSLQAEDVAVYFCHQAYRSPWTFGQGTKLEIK : 95.5
Hu4 (antibody, IgG4, V domains shown, humanized IgG4; also called Hu-04) VH: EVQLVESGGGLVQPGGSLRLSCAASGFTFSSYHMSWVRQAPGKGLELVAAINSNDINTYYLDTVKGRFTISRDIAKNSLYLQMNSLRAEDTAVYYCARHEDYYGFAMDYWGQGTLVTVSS VL: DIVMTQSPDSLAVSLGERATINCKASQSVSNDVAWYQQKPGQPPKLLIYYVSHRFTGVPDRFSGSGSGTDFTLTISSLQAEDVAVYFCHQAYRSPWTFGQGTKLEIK : 94.2

# ---- query binder ----
// query Entry under review: Hu2 (antibody, IgG4, V domains shown, humanized IgG4; also called Hu-02) VH: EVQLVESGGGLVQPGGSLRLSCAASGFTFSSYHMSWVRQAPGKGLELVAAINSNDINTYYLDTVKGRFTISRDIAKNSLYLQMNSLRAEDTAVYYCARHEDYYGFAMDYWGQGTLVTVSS VL: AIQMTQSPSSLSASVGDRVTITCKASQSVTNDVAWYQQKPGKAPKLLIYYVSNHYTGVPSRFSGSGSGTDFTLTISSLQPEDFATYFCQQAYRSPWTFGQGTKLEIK . Reported Relative activity (%)?
// result 92.9
